In this section we review reported pIC50 values for a set of compounds.
- ASSAYED_SYSTEM: Human mTOR (FLAG-TOR) (Homo sapiens, UniProt P42345)
- Construct: FLAG
- TEST_NAME: Human mTOR kinase assay with purified enzyme, DELFIA format
- Assay type: biochemical
- CONDITION_SUMMARY: purified human mTOR enzyme, DELFIA format
// pIC50 is dimensionless: -log10 of concentration (M)

- CC(C)(C)OC(=O)N1CC2CN(c3nc(-c4ccc(NC(=O)Nc5ccncc5)cc4)nc4c3cnn4CC(F)(F)F)CC(C1)O2 [Example 340]: 6.52

Qu. Returns the measured pIC50 for the input compound. Input: Oc1cccc(-c2nc(N3C4CCC3COC4)c3cnn(-c4ccccc4)c3n2)c1 [Example 378]
Ans. 7.94

Qu. # query: pIC50 of entry COC1CCC(n2ncc3c(N4CC5CCC(C4)O5)nc(-c4ccc(NC(=O)Nc5ccc(N6CCN(C)CC6)cc5)cc4)nc32)CC1 (stereo not shown) [Example 304]
Ans. 9.58

Qu. Sample O=C(NCCO)Nc1ccc(-c2nc(N3CC4CCC(C3)O4)c3sccc3n2)cc1 [Example 409] — what was its pIC50?
Ans. 9.51
